Entries and their measured Pre-emergence action at 320 g/ha against ABUTH in % follow.
Test system: ABUTH
Experiment: Pre-emergence action at 320 g/ha against ABUTH
Type: in vivo, Abutilon theophrasti
Conditions: greenhouse, scored visually after about 3 weeks vs untreated controls, 100% = plants have died, 0% = like control plants
Response body: numeric value in %, unit text excluded.

COC(=O)[C@@H](C)Oc1nn(-c2cc(F)ccc2F)c(-c2cncc(F)c2)c1Br [VII-132] = 90

Case COC(=O)COc1nn(-c2ccccc2F)c(-c2cncc(F)c2)c1Br [VII-035] , ABUTH, Pre-emergence action at 320 g/ha against ABUTH in % recorded as 90

// returns Pre-emergence action at 320 g/ha against ABUTH in % for CCOC(=O)[C@@H](C)Oc1nn(-c2cc(F)ccc2F)c(-c2cncc(F)c2)c1Br [VII-136] with ABUTH; value = 80

Case COC(=O)[C@@H](C)Oc1nn(-c2ccccc2)c(-c2cncnc2)c1Br [VI-013] , ABUTH, Pre-emergence action at 320 g/ha against ABUTH in % recorded as 80

Lab note: molecule CCOC(=O)COc1nn(-c2ccccc2F)c(-c2cncc(F)c2)c1Br [VII-015] tested on ABUTH; recorded Pre-emergence action at 320 g/ha against ABUTH in % was 80

Test item CON(C)C(=O)COc1nn(-c2ccccc2F)c(-c2ccc(F)nc2)c1Br [Example X-019] ; ABUTH; reported Pre-emergence action at 320 g/ha against ABUTH in % was 80

The reported Pre-emergence action at 320 g/ha against ABUTH in % value, ABUTH, for CCOC(=O)[C@@H](C)Oc1nn(-c2ccccc2F)c(-c2cncc(F)c2)c1Br [VII-130] reads 90

Reported Pre-emergence action at 320 g/ha against ABUTH in % (ABUTH) for entry COC(=O)COc1nn(-c2ccc(F)cc2)c(-c2cccnc2)c1Br [VII-028] is 90

For the molecule COC(=O)[C@@H](C)Oc1nn(-c2ccccc2)c(-c2cccnc2)c1Br [VII-008] , the measured Pre-emergence action at 320 g/ha against ABUTH in % on ABUTH was 80

Form field Pre-emergence action at 320 g/ha against ABUTH in % for item COC(=O)[C@@H](C)Oc1nn(-c2cc(F)ccc2F)c(-c2cncc(F)c2)c1I [VII-135] on ABUTH: 80

Entry C[C@@H](Oc1nn(-c2ccccc2F)c(-c2cncnc2)c1Br)C(=O)O [VI-012] under ABUTH had Pre-emergence action at 320 g/ha against ABUTH in % of 80

----------
System: MATIN
Assay: Pre-emergence action against MATIN, 1280 g/ha
Format: in vivo, Tripleurospermum inodorum (Matricaria inodora)
Settings: Tripleurospermum inodorum, 504 h, scored visually after about 3 weeks vs untreated controls (100% = plants have died)
Description: 1. Pre-Emergence Herbicidal Effect and Crop Plant Compatibility a) Seeds of mono- and dicotyledonous weed plants are placed in plastic pots in sandy loam soil (doubly sown with one species each of mono- or dicotyledonous weed plants per pot) and covered with soil. […] After about 3 weeks, the effect of the preparations is scored visually in comparison with untreated controls as percentages. […]
Examples of molecules with documented pest or weed control at 1280 g/ha follow.
A bare number is not enough; add the unit after it.

Use the examples below as a reference point.
CCOC(=O)COc1nn(-c2ccccc2F)c(-c2ccnnc2)c1Br [IV-001] = 90%
CCOC(=O)COc1nn(-c2ccccc2F)c(-c2ccnc(F)c2)c1Br [VIII-003] = 100%
COC(=O)[C@@H](C)Oc1nn(-c2ccccc2F)c(-c2cncnc2)c1Br [VI-011] = 90%
C=CCNC(=O)COc1nn(-c2ccccc2F)c(-c2ccc(F)nc2)c1Br [Example X-001] = 90%

As a next step, examine the molecule that follows.
For O=C(O)COc1nn(-c2ccccc2F)c(-c2cncnc2)c1Br [VI-007] the molecule record lists pest or weed control at 1280 g/ha as 100%
